Recorded Drug metabolism, one value per entry.
experiment: Metabolic stability in human liver microsomes assessed as metabolic turnover rate per mg protein in presence of NADPH; format: ADME, Microsome
reportedProperty: Drug metabolism (pmol/min)

>  <chemicalSmiles>
Cc1nc(OCC(=O)N(C)C2CCN(Cc3ccccc3)CC2)nc(C)c1N

>  <reportedProperty>
Drug metabolism

>  <unitsText>
pmol/min

>  <boundOperator>
<

>  <experimentalResult>
10

$$$$
>  <chemicalSmiles>
Cc1nc(OCc2cn(C3CCN(CC4CC4)CC3)nn2)nc(C)c1N

>  <reportedProperty>
Drug metabolism

>  <unitsText>
pmol/min

>  <boundOperator>
<

>  <experimentalResult>
10

$$$$
>  <chemicalSmiles>
Cc1cnc(OCc2cn(C3CCN(Cc4ccccc4)CC3)nn2)nc1

>  <reportedProperty>
Drug metabolism

>  <unitsText>
pmol/min

>  <boundOperator>
=

>  <experimentalResult>
40

$$$$
>  <chemicalSmiles>
Cc1nc(OCc2cn(C3CCN(Cc4ccccc4)CC3)nn2)nc(C)c1N

>  <reportedProperty>
Drug metabolism

>  <unitsText>
pmol/min

>  <boundOperator>
=

>  <experimentalResult>
19

$$$$
>  <chemicalSmiles>
Cc1c(COc2ncc(Cl)cn2)nnn1C1CCN(CC2CC2)CC1

>  <reportedProperty>
Drug metabolism

>  <unitsText>
pmol/min

>  <boundOperator>
<

>  <experimentalResult>
10

$$$$
>  <chemicalSmiles>
Clc1cnc(OCc2cn(C3CCN(Cc4ccccc4)CC3)nn2)nc1

>  <reportedProperty>
Drug metabolism

>  <unitsText>
pmol/min

>  <boundOperator>
=

>  <experimentalResult>
86

$$$$
>  <chemicalSmiles>
Cc1ccc(OCc2cn(C3CCN(CC4CC4)CC3)nn2)nn1

>  <reportedProperty>
Drug metabolism

>  <unitsText>
pmol/min

>  <boundOperator>
=

>  <experimentalResult>
34

$$$$
>  <chemicalSmiles>
Clc1cnc(OCc2cn(C3CCN(CC4CC4)CC3)nn2)nc1

>  <reportedProperty>
Drug metabolism

>  <unitsText>
pmol/min

>  <boundOperator>
=

>  <experimentalResult>
24

$$$$
>  <chemicalSmiles>
Cc1ccc(OCc2cn(C3CCN(Cc4ccccc4)CC3)nn2)nn1

>  <reportedProperty>
Drug metabolism

>  <unitsText>
pmol/min

>  <boundOperator>
=

>  <experimentalResult>
45

$$$$

* * *

biological target: CYP3A4 (Homo sapiens, UniProt P08684); experiment: Inhibition of CYP3A4 in human liver microsomes assessed as enzyme residual activity at 100 uM measured after 30 mins relative to control; format: ADME; conditions: read-out: Activity
Sequence (P08684 whole entry): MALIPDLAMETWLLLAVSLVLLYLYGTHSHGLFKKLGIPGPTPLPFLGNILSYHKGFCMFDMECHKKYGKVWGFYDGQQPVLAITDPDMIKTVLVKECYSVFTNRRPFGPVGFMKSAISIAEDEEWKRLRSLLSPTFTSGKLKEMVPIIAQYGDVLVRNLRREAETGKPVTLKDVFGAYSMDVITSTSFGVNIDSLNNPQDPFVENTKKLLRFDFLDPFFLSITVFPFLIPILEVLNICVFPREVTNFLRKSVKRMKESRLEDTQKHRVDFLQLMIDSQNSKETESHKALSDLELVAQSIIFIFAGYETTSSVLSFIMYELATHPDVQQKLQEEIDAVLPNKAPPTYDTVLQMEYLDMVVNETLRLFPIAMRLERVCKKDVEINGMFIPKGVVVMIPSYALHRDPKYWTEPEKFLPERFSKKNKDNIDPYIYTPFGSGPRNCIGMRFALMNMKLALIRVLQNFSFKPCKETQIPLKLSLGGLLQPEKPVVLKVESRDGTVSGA
// reported activity at 0.5 h, 100 µM for each item listed

>  <chemicalSmiles>
Cc1c(COc2ncc(Cl)cn2)nnn1C1CCN(CC2CC2)CC1

>  <unitsText>
%

>  <activity at 0.5 h, 100 µM>
94

$$$$
>  <chemicalSmiles>
Cc1ccc(OCc2cn(C3CCN(CC4CC4)CC3)nn2)nn1

>  <unitsText>
%

>  <activity at 0.5 h, 100 µM>
100

$$$$
>  <chemicalSmiles>
Cc1cnc(OCc2cn(C3CCN(CC4CC4)CC3)nn2)nc1

>  <unitsText>
%

>  <activity at 0.5 h, 100 µM>
100

$$$$
>  <chemicalSmiles>
Clc1cnc(OCc2cn(C3CCN(CC4CC4)CC3)nn2)nc1

>  <unitsText>
%

>  <activity at 0.5 h, 100 µM>
100

$$$$
>  <chemicalSmiles>
Cc1nc(OCc2cn(C3CCN(Cc4ccccc4)CC3)nn2)nc(C)c1N

>  <unitsText>
%

>  <activity at 0.5 h, 100 µM>
19

$$$$
>  <chemicalSmiles>
Cc1ccc(OCc2cn(C3CCN(Cc4ccccc4)CC3)nn2)nn1

>  <unitsText>
%

>  <activity at 0.5 h, 100 µM>
100

$$$$
>  <chemicalSmiles>
Cc1nc(OCC(=O)N(C)C2CCN(Cc3ccccc3)CC2)nc(C)c1N

>  <unitsText>
%

>  <activity at 0.5 h, 100 µM>
60

$$$$
>  <chemicalSmiles>
Cc1cnc(OCc2cn(C3CCN(Cc4ccccc4)CC3)nn2)nc1

>  <unitsText>
%

>  <activity at 0.5 h, 100 µM>
100

$$$$
>  <chemicalSmiles>
Clc1cnc(OCc2cn(C3CCN(Cc4ccccc4)CC3)nn2)nc1

>  <unitsText>
%

>  <activity at 0.5 h, 100 µM>
99

$$$$
>  <chemicalSmiles>
Cc1nc(OCc2cn(C3CCN(CC4CC4)CC3)nn2)nc(C)c1N

>  <unitsText>
%

>  <activity at 0.5 h, 100 µM>
100

$$$$
